Origin of the recorded values: the supplement of paper PMC10567573

B1: KCNA4 (parent)
chain: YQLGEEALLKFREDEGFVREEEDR

variants of: B1; experiment: protein stability index of a GFP-peptide fusion (GPS, HEK-293T) (PSI 1-6); higher = more stable; conditions: c terminus: a fixed tail appended;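 note: lentivirally expressed fusions sorted by FACS into six bins by GFP to DsRed ratio, PSI derived from sequencing read proportions per bin multiplied by bin number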
// values below are reported protein stability index
The answer should be written as a number, with no unit following it.

{"sequenceCode": "YKLGEEALLKFREDEGFVREEEDR", "protein stability index": 5.7}

protein stability index lookup needed for `YQLGEEALLKFREWEGFVREEEDR` , thanks. 2.81

What value of protein stability index has been recorded for this entry: `YQLGGEALLKFREDEGFVREEEDR` 3.87

Entry `YQLKEEALLKFREDEGFVREEEDR` has what protein stability index? 5.34

Record request: protein stability index value, item `YQLGEEALLKFREDEGFVREEEVR` 3.7

Which protein stability index value belongs to `YQLGEVALLKFREDEGFVREEEDR` ? 2.93

Need protein stability index of `YQLGEEALLKFREDWGFVREEEDR` , thanks. 3.84

Which measured protein stability index value corresponds to `YQLGEEAFLKFREDEGFVREEEDR` ? 4.43

Param item = `YQLGEEALLKFREDEGFVREEEYR` ; retrieve measured protein stability index. 4.46

What does the data say about its protein stability index? Entry: `YQLGEEALLKFREHEGFVREEEDR` 3.64

Reported protein stability index, variant `YQMGEEALLKFREDEGFVREEEDR` : ____ 3.76

Any idea what its protein stability index is? The variant is `YQLGEEVLLKFREDEGFVREEEDR` 4.33

What value of measured protein stability index is listed for `YQLGEEALLKFREDEGFVREEEDL` ? 4.54

Consider the variant shown here: `YQLGEEALLKFREDEGFVREYEDR` What is its recorded protein stability index? 4

Request the reported protein stability index associated with `YQLGEEALLKFREDEGFVREEENR` 4.05

Could you tell me which protein stability index is on file for `AQLGEEALLKFREDEGFVREEEDR` ? 5.7

Entry `YQLREEALLKFREDEGFVREEEDR` : reported protein stability index = ? 4.56

Name the recorded protein stability index for `YQLGEEALLTFREDEGFVREEEDR` . 4.57
